Reported IC50 is given for each of the following compounds.
targetSystem: cSrc (Homo sapiens (Human))
Sequence (P12931 whole entry, looked up): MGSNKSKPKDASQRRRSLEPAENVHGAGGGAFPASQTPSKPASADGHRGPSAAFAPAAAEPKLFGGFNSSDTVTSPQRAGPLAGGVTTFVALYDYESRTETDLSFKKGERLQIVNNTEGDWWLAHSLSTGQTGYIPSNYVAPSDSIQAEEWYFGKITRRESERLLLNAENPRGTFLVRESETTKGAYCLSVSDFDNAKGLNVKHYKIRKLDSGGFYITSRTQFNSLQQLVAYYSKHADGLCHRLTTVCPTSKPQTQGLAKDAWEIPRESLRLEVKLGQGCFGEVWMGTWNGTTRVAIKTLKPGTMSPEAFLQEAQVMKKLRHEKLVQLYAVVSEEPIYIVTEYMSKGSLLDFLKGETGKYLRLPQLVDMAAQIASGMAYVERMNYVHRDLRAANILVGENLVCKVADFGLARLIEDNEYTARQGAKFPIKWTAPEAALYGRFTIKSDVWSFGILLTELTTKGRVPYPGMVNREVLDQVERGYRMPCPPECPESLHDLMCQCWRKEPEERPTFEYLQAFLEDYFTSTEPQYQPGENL

Record excerpt, results attached:
- recordSmiles: "CC(C)(C)c1cc(NC(=O)Nc2ccc(Oc3ccnc(Nc4ccc5[nH]ncc5c4)n3)c3ccccc23)n(-c2ccc(=O)n(CCO)c2)n1"
  attributeMeasured: "IC50"
  reportedResult: "< 1 nM"
- recordSmiles: "Cc1ccc(-n2nc(C(C)(C)C)cc2NC(=O)Nc2ccc(Oc3ccnc(Nc4ccc5onc(N)c5c4)n3)c3ccccc23)cc1"
  attributeMeasured: "IC50"
  reportedResult: "> 1560 nM"

// next entry
Tested system cSrc (Homo sapiens (Human)); IC50 recorded for "Cc1cc(Nc2nccc(Oc3ccc(NC(=O)Nc4cc(C(C)(C)C)nn4-c4ccc(=O)n(CCN5CCOCC5)c4)c4ccccc34)n2)cc2cn[nH]c12" was < 1 nM

----------
targetSystem: GSK3α (Homo sapiens (Human))
Sequence (P49840 whole entry): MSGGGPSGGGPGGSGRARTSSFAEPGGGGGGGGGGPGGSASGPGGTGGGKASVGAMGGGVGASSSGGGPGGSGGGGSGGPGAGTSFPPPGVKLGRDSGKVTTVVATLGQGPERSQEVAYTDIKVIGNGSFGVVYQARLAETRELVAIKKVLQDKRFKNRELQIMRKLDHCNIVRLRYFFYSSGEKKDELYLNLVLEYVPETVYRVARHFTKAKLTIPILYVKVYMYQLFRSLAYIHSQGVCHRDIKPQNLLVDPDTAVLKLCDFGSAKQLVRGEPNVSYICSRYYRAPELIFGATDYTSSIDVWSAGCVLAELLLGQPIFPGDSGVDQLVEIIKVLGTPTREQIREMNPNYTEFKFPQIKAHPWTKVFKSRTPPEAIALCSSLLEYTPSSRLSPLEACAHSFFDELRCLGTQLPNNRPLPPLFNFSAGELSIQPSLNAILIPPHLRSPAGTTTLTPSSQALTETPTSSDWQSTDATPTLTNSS
attributeMeasured: IC50 (nM)
All answers are understood in nM, so give the number only.

Record excerpt, results attached:
- compound: "Cc1ccc(-n2nc(C(C)(C)C)cc2NC(=O)Nc2ccc(Oc3ccnc(Nc4ccc5c(c4)CC(=O)N5)n3)c3ccccc23)cc1 [Example 19]"
  IC50 [nM]: 1010
- compound: "Cc1cc(Nc2nccc(Oc3ccc(NC(=O)Nc4cc(C(C)(C)C)nn4-c4ccc(OCCN5CCOCC5)nc4)c4ccccc34)n2)cc2cn[nH]c12 [Example 91]"
  IC50 [nM]: 1210
- compound: "CC(C)(C)c1cc(NC(=O)Nc2ccc(Oc3ccnc(Nc4ccc5oc(=O)[nH]c5c4)n3)c3ccccc23)n(-c2ccc(OCCN3CCOCC3)cc2)n1 [Example 76]"
  IC50 [nM]: 777

// next entry
Tested system GSK3α (Homo sapiens (Human)); IC50 recorded for CC(C)(C)c1cc(NC(=O)Nc2ccc(Oc3ccnc(Nc4ccc5c(c4)COC5)n3)c3ccccc23)n(-c2ccc(OCCN3CCOCC3)cc2)n1 [Example 60] was 686
